condition.label: buffer; pH 7.4; 200.0 µM
metric.name: solubility kinetic (µg/mL)
Just the number please, in µg/mL, no unit attached.

Query :: Dear colleague, I am looking for the recorded solubility kinetic of the following compound: `Cc1cc(=O)oc2cc(OCC(=O)Nc3nccs3)ccc12`
Result :: 4.1

Query :: What about `O=C(OCC(=O)N1CCc2ccccc21)c1ccc[nH]c1=O` ?
Result :: 8.6

Query :: Follow-up item: CCC1CCC2(CC1)NC(=O)N(CC(=O)NCc1ccc(Cl)cc1)C2=O (centres undefined)
Result :: 3.7

Query :: Also, `COc1cccc(C(=O)OCC(=O)NC23CC4CC(CC(C4)C2)C3)c1` please.
Result :: 19.8

Query :: Please answer likewise for `COc1cc(CN2CCCN(C)CC2)cc([N+](=O)[O-])c1O`
Result :: 33.9

Query :: Moving on to the next compound: `CCCOc1ccc(-c2nc(N3CCN(C)CC3)c3ccccc3n2)cc1`
Result :: 14.5

Query :: And for `O=C(COc1ccc2cc(Br)ccc2c1Br)N1CCOCC1` ?
Result :: 13.9

###

condition.label: buffer; pH 7.4; 200.0 µM
metric.name: solubility kinetic (µg/mL)
Give the number; µg/mL is assumed, so skip it.

Query :: Requested field: solubility kinetic. Item: `O=c1cc(-c2ccccc2)nc(Sc2ccc([N+](=O)[O-])cc2[N+](=O)[O-])[nH]1`
Result :: 3.3

Query :: Check `CCc1noc(C)c1C(=O)Nc1nc2ccc(F)cc2s1` too.
Result :: 27.2

Query :: What do we get for `Cc1ccc(NC(=O)Nc2cnccn2)c(C)c1` ?
Result :: 2.2

###

solubility kinetic by entry:
condition.label: buffer; pH 7.4; 200.0 µM
Your answer should be a plain number; it is taken to be in µg/mL.

In the examples that follow, each entry is paired with its recorded solubility kinetic.
COc1cccc(NC(=O)c2ccc3nc(C)sc3c2)c1    38.7
O=C1/C(=C\c2ccco2)SC(=S)N1C1CCS(=O)(=O)C1 (configuration not stated)    6.6
CCCOc1ccc(C(=O)NC2CCSc3ccccc32)cc1 (configuration not stated)    1.6

Query :: GET /values?readout=solubility kinetic&item= `S=C(NCc1ccccc1)NCc1ccco1`
Result :: 28.2

###

condition.label: buffer; pH 7.4; 200.0 µM
metric.name: solubility kinetic (µg/mL)
I only need the number, in µg/mL, no unit after it.

Examples with answers:
CCN1C(=O)N(c2ccc(C(C)=O)cc2)S(=O)(=O)c2ccccc21    47.6
CC(=O)Nc1ccc(S(=O)(=O)N2CCSC2)cc1    29.8
Cc1ccc(C)c(OCCC(=O)Nc2ccccc2C(=O)NC2CC2)c1    4.2

Now for another entry.
Query :: I have this compound here, `CCN(CC)c1ccc(N=Cc2c(O)n(CCc3ccc(OC)c(OC)c3)c(=O)[nH]c2=O)cc1` , and I need its recorded solubility kinetic.
Result :: 9.5

###

condition.label: buffer; pH 7.4; 200.0 µM
metric.name: log10 solubility kinetic (log10 of the value in µg/mL)
Record value = log10 of solubility kinetic given in µg/mL.

The following compounds have reported results that may help.
CCN(CC(=O)Nc1ccc2c(c1)OCCO2)C(=O)/C=C/c1cccc(C(F)(F)F)c1    0.56
Nc1c(Cl)cnc(C(Cl)(Cl)Cl)c1Cl    1.29
NC(CCCCCP(=O)(c1ccccc1)c1ccccc1)C(=O)O (stereo unspecified)    1.61

Query :: Please give the measured log10 solubility kinetic for this compound: COc1ccc(N2CCC(CNC(=O)Nc3cccc(OC)c3)C2)cc1 (stereo unspecified)
Result :: 1.54

Query :: Now consider `CCc1ccc2[nH]c(C(=O)Nc3ccc4c(c3)OCO4)cc2c1` and answer again.
Result :: -0.10

Query :: Consider next the compound `CCOc1ccc(C(=O)O/N=C(\N)c2ccccn2)cc1OCC` in the same way.
Result :: 1.33

Query :: And then `NS(=O)(=O)c1ccc(NC(=O)COc2ccc(Cl)cc2)cc1` , what is it?
Result :: 0.40

Query :: Same thing, different compound: `CCCN1CCN(CCCNC(=S)Nc2ccc(F)cc2)CC1`
Result :: 1.69
